# Tested on: IGROV1 ovarian
# procedureText: NCI-60 one-dose screen, 48 h (100 = growth as untreated, 0 = no growth, -100 = all killed)
# testParameters: 10 µM unless noted
About 83,000 compounds went through this panel and 20% of them were active in at least one assay; those are over-represented in the sample as a whole.
Range-based classes on measured growth: category 1 (below 60%), category 2 (60% to below 90%), category 3 (90% or more)

molecule: O=C(Cc1ccccc1)NNc1nc(Cl)nc(N2CCN(C(c3ccccc3)c3ccccc3)CC2)n1
target: IGROV1 ovarian
assignedCategory: category 2
//
molecule: CCC(=O)Oc1ccc(/C(=C(\C)c2ccccc2)c2ccc(OCCN3CCCCC3)cc2)cc1
target: IGROV1 ovarian
assignedCategory: category 3
//
molecule: COc1ccc(C(=O)c2cc(OC)c(OC)c(OC)c2)cc1O
target: IGROV1 ovarian
assignedCategory: category 1

Problem: Could you place `N=C(N)c1ccc(OCCCCCCCCCCOc2ccc(C(=N)N)cc2)cc1` in its proper category? Many thanks.
Solution: category 1

Problem: Could you place `CNC(=O)c1cncc(Cn2nc(C)c(NC(=O)c3ccc(COc4ccc(C(F)(F)F)cc4C)cc3)c2C)c1` in its proper category? Many thanks.
Solution: category 2

Problem: Could you place `COc1ccc2[nH]c(=O)c(CN3CCN(c4nccc(-c5ccc(Cl)cc5)n4)CC3)cc2c1` in its proper category? Many thanks.
Solution: category 3

Problem: Could you place Cc1ccc(NC(C(=O)c2ccccc2)c2ccccc2)cc1 (centres undefined) in its proper category? Many thanks.
Solution: category 1

Problem: Could you place COc1cc(C2C3CC4CCCC[C@H]4N3[C@@]3(C(=O)Nc4cc(Cl)ccc43)C2C(=O)c2nc3ccccc3[nH]2)cc(OC)c1OC (some centres undefined) in its proper category? Many thanks.
Solution: category 2

----------
# Test system: OVCAR-5 ovarian
# procedureText: NCI-60 one-dose screen, 48 h (100 = growth as untreated, 0 = no growth, -100 = all killed)
# testParameters: 10 µM unless noted
Compounds without any hit were thinned out: in the full panel of roughly 83,000, 20% have a hit.
measurementType: growth (%)
Record the value in %, omitting the unit from your answer.

Worked set:
smilesString: CC(C)(C)c1cc(C=O)cc(C(C)(C)C)c1O
growth [%]: 108
//
smilesString: Cc1cccc(C)c1N=c1oc2ccc(Cl)cc2nc1-c1ccccc1O
growth [%]: 81.3
//
smilesString: Cc1cccc(NC(=O)Nc2ccc(-c3ccc4c(c3)NC(=O)/C4=C\c3ccc[nH]3)cc2)c1
growth [%]: 96.3

Problem: Name the recorded growth for `CCN(CC)CCn1c(=O)c2cc(OC)c(OC)cc2c2ccc3cc4c(cc3c21)OCO4` .
Solution: 64.9

Problem: Name the recorded growth for `CN(CCN(C)c1ccc(C(=N)N)cc1)c1ccc(C(=N)N)cc1` .
Solution: 90.9

----------
# System: NCI-H23 lung
# procedureText: NCI-60 one-dose screen, 48 h (100 = growth as untreated, 0 = no growth, -100 = all killed)
# testParameters: 10 µM unless noted
This is part of a sample that, as a whole, favours compounds with a hit. Of some 83,000 tested, about 20% had one in any assay.
Binary call on growth: satisfied from 60% upward, not satisfied beneath that.

molecule: CN1CCN(C(=O)[C@]23CCC(C)(C)C[C@H]2C2=CC[C@@H]4[C@@]5(C)C/C(=C/c6cccnc6)C(=O)C(C)(C)[C@@H]5CC[C@@]4(C)[C@]2(C)CC3)CC1
assignedCategory: satisfied
//
molecule: COc1cc2c(c(OC)c1OC)-c1ccc(NNC(=S)N(Cc3cccc(C[N+](Cc4cccc(CNC56CC7CC(CC(C7)C5)C6)c4)(Cc4cccc(CNC56CC7CC(CC(C7)C5)C6)c4)Cc4cccc(CN(C(=S)NNc5ccc6c(cc5=O)[C@@H](NC(C)=O)CCc5cc(OC)c(OC)c(OC)c5-6)C56CC7CC(CC(C7)C5)C6)c4)c3)C34CC5CC(CC(C5)C3)C4)c(=O)cc1[C@@H](NC(C)=O)CC2 (some centres undefined)
assignedCategory: not satisfied
//
molecule: O=S(=O)(NCCNc1nccc(-c2c(-c3cccc(F)c3)nc3sccn23)n1)c1ccc(Br)cc1
assignedCategory: satisfied
//
molecule: Oc1ccc(C(c2ccc(O)cc2)c2ccc(Br)cn2)cc1
assignedCategory: not satisfied

Problem: Kindly determine if growth recorded for `COc1ccc(NC(N)=NCCCOc2ccc(F)cc2)cc1` is above or exactly 60%.
Solution: satisfied

Problem: Kindly determine if growth recorded for `N=C(N)c1ccc(OCCCCCCCCCCOc2ccc(C(=N)N)cc2)cc1` is above or exactly 60%.
Solution: not satisfied

Problem: Kindly determine if growth recorded for `O=Cc1cc2ccccc2nc1Oc1ccc(C(F)(F)F)cc1` is above or exactly 60%.
Solution: satisfied
